# target.entity: PDE V (Homo sapiens)
# Construct: Fractions that contain PDE V are pooled and dialyzed overnight
# protocol.description: Type V phosphodiesterase inhibition (hydrolysis of [3H]-cyclic GMP)
# experimental.setup: enzyme isolated from platelets
For each record, check the reported IC50: if it is below 8 µM write satisfied, else write not satisfied.

Use these answered entries as a reference point.
- sample.smiles: "COc1ccc(Cn2cnc(=O)c3[nH]c(C(C)(C)OCc4ccccc4)nc32)cc1OC1CCCC1"
  target.entity: "PDE V (Homo sapiens)"
  category: "not satisfied"
- sample.smiles: "COc1ccc(Cn2cnc(=O)c3[nH]c(C(C)C)nc32)cc1OC1CCCC1"
  target.entity: "PDE V (Homo sapiens)"
  category: "not satisfied"

Dear colleague, could you confirm whether IC50 of COc1ccc(Cn2cnc(=O)c3[nH]c(C(C)(C)OCc4ccc(F)cc4)nc32)cc1OC1CCCC1 falls below 8 µM? Thanks. not satisfied

Then what about the molecule COc1ccc(Cn2cnc(=O)c3[nH]c(C(C)(C)OCc4ccccc4)nc32)cc1OCc1ccccc1 ? not satisfied

Then what about the molecule COc1ccc(Cn2cnc(=O)c3[nH]c(C(C)C)nc32)cc1OC ? not satisfied

Then what about the molecule COc1ccc(Cn2cnc(=O)c3[nH]c(C(C)(C)OCc4ccccc4)nc32)cc1OC ? not satisfied

Then what about the molecule COc1ccc(Cn2cnc(=O)c3[nH]c(C(C)(C)OCc4ccc(F)cc4)nc32)cc1OC ? not satisfied

Then what about the molecule COc1ccc(Cn2cnc(=O)c3[nH]c(COCc4ccccc4)nc32)cc1OC1CCCC1 ? satisfied
